System: ACHN
Method: NCI tumour cell line growth inhibition, 48 h
Active and inactive are the calls of the source. No stated cut-off is given here; in the data, active = GI50 up to about 1.1 µM and inactive = higher.
We begin with a simple list: items and their reported GI50.

# example entries with known answers
CCOC(=O)c1ccc(Nc2nc3ccc(C(F)(F)F)cc3nc2-c2ccccc2)cc1	> 100 µM (inactive)
COc1ccc(C(=O)C(C(=O)CC(=O)Nc2cccc(C(F)(F)F)c2)c2ccc(OC)cc2)cc1 (stereo not given)	> 100 µM (inactive)
O=C1CSC(c2ccc(Cl)cc2)N1c1ccc(Oc2ccc(Cl)cc2)c(Cl)c1 (stereo not given)	17.4 µM (inactive)
CN(C)CCNc1ccc(NCCN(C)C)c2c1C(=O)c1ncsc1C2=O	8.2 µM (inactive)

Quote GI50 reported for O=C1OC(C2Cc3ccc4ccccc4c3C2=O)c2ccccc21 (stereo not given) please.
53.1 µM (inactive)
